Provide the recorded pEC50 for the entries that follow.
# assaySystem: PYL2 receptor-HAB1 protein phosphatase complex (Arabidopsis thaliana)
# Construct: made in house; host or cells: E. coli BL21 (DE3)
# Sequence (O80992 14-188): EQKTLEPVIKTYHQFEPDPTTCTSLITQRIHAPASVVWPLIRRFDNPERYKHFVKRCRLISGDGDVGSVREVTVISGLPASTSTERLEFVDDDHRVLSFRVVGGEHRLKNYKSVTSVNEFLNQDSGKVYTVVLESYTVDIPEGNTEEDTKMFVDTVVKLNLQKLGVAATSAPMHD
# Sequence (Q9CAJ0 172-511 partner limits assumed): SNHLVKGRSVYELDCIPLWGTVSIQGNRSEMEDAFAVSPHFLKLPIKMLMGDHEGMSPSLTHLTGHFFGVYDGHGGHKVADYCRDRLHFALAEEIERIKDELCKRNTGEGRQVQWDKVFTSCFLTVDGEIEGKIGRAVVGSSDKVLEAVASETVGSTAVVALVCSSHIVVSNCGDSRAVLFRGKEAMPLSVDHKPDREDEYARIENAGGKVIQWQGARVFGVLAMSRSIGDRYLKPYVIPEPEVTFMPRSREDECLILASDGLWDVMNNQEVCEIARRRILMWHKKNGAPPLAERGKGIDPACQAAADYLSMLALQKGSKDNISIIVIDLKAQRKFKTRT
# procedureDetails: AlphaScreen assay: promotion of PYL2 receptor binding to PP2C protein phosphatase HAB1
# measurementConditions: FIG. 2c; 6×His-SUMO-tagged PYL2 (aa 14-188), Biotin-tagged HAB1 (aa 172-511), 100 nM each; pH 7.4; 1.5 h room temperature; read-out: EC50
Expect pEC50 as a plain number equal to -log10 of the molar concentration.

Exercise: Specify pEC50 for CCCN1C(=O)OC(C)c2cc(NS(=O)(=O)Cc3c(F)c(F)c(C)c(F)c3F)ccc21 (centres unmarked) and stop.
Solution: 7.53

Exercise: Specify pEC50 for `CCCN1C(=O)OC(C)(C)c2cc(NS(=O)(=O)Cc3c(F)c(F)c(C)c(F)c3F)ccc21` and stop.
Solution: 7.23
